test.method.notes: Growth inhibition of human HEK293 cells assessed as cell viability at 100 ug incubated for 48 hrs by MTT assay relative to control
Assay type: cell-based
condition.notes: read-out: Activity
value.kind: viability at 48 h, 100 ug (%)
Give bare numbers, in %.

> print(dat)
                                   compound  unit.tag  measured.result
1  CC1=C(C(=O)c2ccccc2)C(c2ccc3c(c2)OCO3)NC(=S)N1 (racemic)         %               46
2  COc1cccc2c1C(=O)c1c(O)c3c(c(O)c1C2=O)C[C@@](O)(C(=O)CO)C[C@@H]3O[C@H]1C[C@H](N)[C@H](O)[C@H](C)O1 [DOXORUBICIN]         %             33.8
3  CC1=C(C(=O)OCc2ccccc2)C(c2ccc3c(c2)OCO3)n2c(nc3ccccc32)N1 (racemic)         %               36
4  CC1(C)CC(=O)C2=C(C1)NC(=O)NC2c1ccc2c(c1)OCO2 (racemic)         %             43.5
5  CC(=O)C1=C(C)Nc2nc3ccccc3n2C1c1ccc2c(c1)OCO2 (racemic)         %             36.6

Let us move to another entry and its viability at 48 h, 100 ug.
# input compound: CC(=O)N1C(=S)NC(C)=C(C(=O)OCc2ccccc2)C1c1ccc2c(c1)OCO2 (racemic) ; wanted: its viability at 48 h, 100 ug
41.4
